Consider the following molecules and their measured IC50 readings.
target: Human CD38 (Homo sapiens (Human))
Sequence (P28907 whole entry): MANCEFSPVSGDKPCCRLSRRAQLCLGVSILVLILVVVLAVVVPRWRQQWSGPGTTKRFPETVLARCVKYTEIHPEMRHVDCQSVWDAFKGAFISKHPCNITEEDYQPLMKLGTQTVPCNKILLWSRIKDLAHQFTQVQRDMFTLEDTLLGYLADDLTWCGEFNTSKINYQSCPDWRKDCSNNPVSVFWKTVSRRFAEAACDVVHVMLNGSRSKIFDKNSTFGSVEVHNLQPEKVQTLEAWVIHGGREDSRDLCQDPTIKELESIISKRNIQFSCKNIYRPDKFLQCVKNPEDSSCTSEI

C[C@H](O)[C@H]1CC[C@H](NC(=O)c2nc(-n3ccnc3)nc3ccsc23)CC1 (single isomer, unassigned) [Example 267b] | 10 to 100 nM

query: Hello, I am looking for reported IC50 with Human CD38 (Homo sapiens (Human)) for CN(C)CCO[C@H]1CC[C@H](NC(=O)c2nc(-n3ccnc3)nc3cc[nH]c23)CC1 . Could you help?
result: 10 to 100 nM

query: # iterate: O=C(N[C@H]1CC[C@H](N2CCOCC2)CC1)c1nc(-n2ccnc2)nc2cc[nH]c12
result: 10 to 100 nM

query: # iterate: O=C(N[C@H]1CC[C@@H](NCCC(F)(F)F)CC1)c1nc(-n2ccnc2)cc2cn[nH]c12
result: 100 to 1000 nM

query: # iterate: O=C(N[C@H]1CC[C@H](N2CCCS2(=O)=O)CC1)c1nc(-n2ccnc2)nc2cc[nH]c12
result: 10 to 100 nM

query: # iterate: CC1(C#N)CN([C@H]2CC[C@H](NC(=O)c3nc(-n4ccnc4)cc4cn[nH]c34)CC2)C1
result: 10 to 100 nM

query: # iterate: O=C(Nc1cncnc1)c1nc(-n2ccnc2)nc2cc[nH]c12
result: < 10 nM

---

target: UniProt:P28907
Consider the following molecules and their measured IC50 readings.

O=C(N[C@@H]1CCNC[C@@H]1F)c1nc(-n2ccnc2)nc2cc[nH]c12 [Example 123a] | 10 to 100 nM

query: What IC50 value was documented for this molecule, N#CCO[C@H]1CC[C@H](NC(=O)c2nc(-n3ccnc3)cc3cn[nH]c23)CC1 ?
result: < 10 nM

query: # iterate: CC(F)(F)CN[C@H]1CC[C@H](NC(=O)c2nc(-n3ccnc3)cc3cn[nH]c23)CC1
result: 10 to 100 nM

query: # iterate: C[C@]1(O)CC[C@@H](NC(=O)c2nc(-n3ccnc3)nc3cc[nH]c23)CC1
result: < 10 nM

query: # iterate: CO[C@]1(C)CC[C@@H](NC(=O)c2nc(-n3ccnc3)nc3cc[nH]c23)CC1 [Example 128a]
result: < 10 nM

---

Observed IC50 for Human CD38 (Homo sapiens (Human), UniProt P28907), reported per entry below.

Examples with answers:
CC(=O)NC[C@H]1CC[C@H](NC(=O)c2nc(-n3ccnc3)nc3cc[nH]c23)CC1 | < 10 nM
O=C(NC1CCCCC1)c1nc(-n2ccnc2)nc2cc[nH]c12 | < 10 nM
C[C@@H](O)CO[C@H]1CC[C@H](NC(=O)c2nc(-n3ccnc3)nc3cc[nH]c23)CC1 (single isomer, unassigned) [Example 125a] | 10 to 100 nM
O=C(N[C@H]1CC[C@H](CCO)CC1)c1nc(-n2ccnc2)nc2cc[nH]c12 | < 10 nM

query: What IC50 value was documented for this compound, O=C(N[C@H]1CC[C@H](CNCC(F)(F)F)CC1)c1nc(-n2ccnc2)nc2cn[nH]c12 ?
result: 10 to 100 nM

query: # iterate: COc1ccc(NC(=O)c2nc(-n3ccnc3)nc3cc[nH]c23)nc1
result: < 10 nM

query: # iterate: O=C(NC1CCOCC1)c1nc(-n2ccnc2)nc2cc[nH]c12
result: 10 to 100 nM

query: # iterate: O=C(Nc1ccccc1)c1nc(-n2ccnc2)nc2cc[nH]c12
result: < 10 nM

query: # iterate: O=C(N[C@H]1CC[C@@H](NCC(F)F)CC1)c1nc(-n2ccnc2)nc2cc[nH]c12
result: 100 to 1000 nM

query: # iterate: O=C(N[C@H]1CC[C@H](NCC(F)F)CC1)c1nc(-n2ccnc2)cc2cn[nH]c12
result: 10 to 100 nM

query: # iterate: COCCN1CCc2ccc(NC(=O)c3nc(-n4ccnc4)nc4cc[nH]c34)cc2C1
result: 10 to 100 nM

query: # iterate: O=C(N[C@H]1CC[C@H](NCC(F)(F)F)CC1)c1nc(-n2ccnc2)cc2cn[nH]c12
result: 10 to 100 nM

query: # iterate: O=C(N[C@H]1CC[C@@H](NCCC(F)F)CC1)c1nc(-n2ccnc2)nc2cc[nH]c12
result: 100 to 1000 nM

query: # iterate: CC(F)(F)CN[C@H]1CC[C@H](NC(=O)c2nc(-n3ccnc3)nc3cc[nH]c23)CC1
result: 10 to 100 nM

query: # iterate: COCCO[C@H]1CC[C@H](NC(=O)c2nc(-n3ccnc3)nc3cc[nH]c23)CC1
result: 10 to 100 nM

query: # iterate: CC(C)(O)[C@H]1CC[C@H](NC(=O)c2nc(-n3ccnc3)nc3cc[nH]c23)CC1
result: 10 to 100 nM
